Molecular target: CHOK1 cells engineered to overexpress human CCR2 (Homo sapiens, UniProt P41597)
Construct: expressed in transfected cells; host or cells: CHOK1 cells
Test: Antibody dependent cellular cytotoxicity (ADCC) reporter assay
Type: cell-based
Details: with anti-cotinine antibody (SEQ ID NO: 11/12, human IgG1 Fc S239D/I332E); Jurkat FcγRIIIa NFAT-luciferase reporter cells; 12-18 hours; average if more than one run; read-out: ADCC Reporter Assay pEC50 (converted)
Reported values of EC50 for individual entries
Give the value, in units of nM, as a plain number.

compound.smiles	experimental.value
CC(=O)N[C@@H]1C[C@H](NC(C)(C)C)CC[C@@H]1N1CC[C@H](Nc2nc(NC3CCN(C(=O)[C@H]4CC[C@H](NC(=O)CCCO[C@H]5CC[C@H](OCCNC(=O)[C@H]6CC(=O)N(C)[C@@H]6c6cccnc6)CC5)CC4)CC3)nc3ccc(C(F)(F)F)cc23)C1=O	0.316

Form: molecule = `CC(=O)N[C@@H]1C[C@H](NC(C)(C)C)CC[C@@H]1N1CC[C@H](Nc2nc([C@H]3CC[C@@H](NC(=O)[C@H]4CC[C@H](NC(=O)CCCO[C@H]5CC[C@H](OCCNC(=O)[C@H]6CC(=O)N(C)[C@@H]6c6cccnc6)CC5)CC4)CC3)nc3ccc(C(F)(F)F)cc23)C1=O` ; EC50 = 0.251

Briefly, EC50 measured for `CC(=O)N[C@@H]1C[C@H](NC(C)(C)C)CC[C@@H]1N1CC[C@H](Nc2nc(NCCNC(=O)[C@H]3CC[C@H](NC(=O)CCCO[C@H]4CC[C@H](OCCNC(=O)[C@H]5CC(=O)N(C)[C@@H]5c5cccnc5)CC4)CC3)nc3ccc(C(F)(F)F)cc23)C1=O` : 0.251

Value of measured EC50 for the entry `CC(=O)N[C@@H]1C[C@H](NC(C)(C)C)CC[C@@H]1N1CC[C@H](Nc2nc(CCCNC(=O)[C@H]3CC[C@H](NC(=O)CCCO[C@H]4CC[C@H](OCCNC(=O)[C@H]5CC(=O)N(C)[C@@H]5c5cccnc5)CC4)CC3)nc3ccc(C(F)(F)F)cc23)C1=O` : 0.158

* * *

Experiment: Blood drug concentration analysis (PK) in the in vivo depletion assay
Set-up: species or system human CCR2 (hCCR2) knock-in mice
Details: human CCR2 (hCCR2) knock-in, C57 background, mouse, whole blood, LC-MS/MS, IV bolus 0.1 mpk compound + 10 mpk anti-cotinine antibody, 48 hours post-dose, read-out: Exposure of Compound of Formula (I) 48 hours post-dose
Measured concentration at 48 h, listed per entry.
A number alone suffices; assume ng/mL.

compound.smiles	unit.symbol	experimental.value
CC(=O)N[C@@H]1C[C@H](NC(C)(C)C)CC[C@@H]1N1CC[C@H](Nc2nc([C@H]3CC[C@@H](NC(=O)[C@H]4CC[C@H](NC(=O)CCCO[C@H]5CC[C@H](OCCNC(=O)[C@H]6CC(=O)N(C)[C@@H]6c6cccnc6)CC5)CC4)CC3)nc3ccc(C(F)(F)F)cc23)C1=O	ng/mL	35.5
CC(=O)N[C@@H]1C[C@H](NC(C)(C)C)CC[C@@H]1N1CC[C@H](Nc2nc([C@H]3CC[C@H](NC(=O)[C@H]4CC[C@H](NC(=O)CCCO[C@H]5CC[C@H](OCCNC(=O)[C@H]6CC(=O)N(C)[C@@H]6c6cccnc6)CC5)CC4)CC3)nc3ccc(C(F)(F)F)cc23)C1=O	ng/mL	93.4
CC(=O)N[C@@H]1C[C@H](NC(C)(C)C)CC[C@@H]1N1CC[C@H](Nc2nc(CCCNC(=O)[C@H]3CC[C@H](NC(=O)CCCO[C@H]4CC[C@H](OCCNC(=O)[C@H]5CC(=O)N(C)[C@@H]5c5cccnc5)CC4)CC3)nc3ccc(C(F)(F)F)cc23)C1=O	ng/mL	42.9

Consider the additional molecule presented here.
For record `CC(=O)N[C@@H]1C[C@H](NC(C)(C)C)CC[C@@H]1N1CC[C@H](Nc2nc(CCCCNC(=O)[C@H]3CC[C@H](NC(=O)CCCO[C@H]4CC[C@H](OCCNC(=O)[C@H]5CC(=O)N(C)[C@@H]5c5cccnc5)CC4)CC3)nc3ccc(C(F)(F)F)cc23)C1=O` the listed concentration at 48 h is 37.1

* * *

We begin with a simple list: items and their reported pIC50.
Target: human alpha1 nicotinic acetylcholine (nACh) receptor (Homo sapiens, UniProt P02708+Q07001)
Sequence (P02708 21-457): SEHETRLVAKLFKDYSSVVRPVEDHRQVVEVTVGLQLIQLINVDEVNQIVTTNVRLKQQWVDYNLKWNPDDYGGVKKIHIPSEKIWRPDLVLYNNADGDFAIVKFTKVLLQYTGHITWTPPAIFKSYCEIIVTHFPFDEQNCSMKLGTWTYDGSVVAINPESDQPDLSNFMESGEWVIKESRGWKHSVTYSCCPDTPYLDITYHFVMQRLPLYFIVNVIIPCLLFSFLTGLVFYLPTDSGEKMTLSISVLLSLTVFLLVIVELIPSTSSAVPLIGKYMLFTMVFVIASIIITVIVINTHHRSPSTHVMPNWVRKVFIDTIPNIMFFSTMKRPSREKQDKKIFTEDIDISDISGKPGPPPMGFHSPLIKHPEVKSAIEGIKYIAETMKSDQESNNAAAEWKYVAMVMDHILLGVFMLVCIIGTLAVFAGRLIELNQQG
Sequence (P11230 24-501 partner): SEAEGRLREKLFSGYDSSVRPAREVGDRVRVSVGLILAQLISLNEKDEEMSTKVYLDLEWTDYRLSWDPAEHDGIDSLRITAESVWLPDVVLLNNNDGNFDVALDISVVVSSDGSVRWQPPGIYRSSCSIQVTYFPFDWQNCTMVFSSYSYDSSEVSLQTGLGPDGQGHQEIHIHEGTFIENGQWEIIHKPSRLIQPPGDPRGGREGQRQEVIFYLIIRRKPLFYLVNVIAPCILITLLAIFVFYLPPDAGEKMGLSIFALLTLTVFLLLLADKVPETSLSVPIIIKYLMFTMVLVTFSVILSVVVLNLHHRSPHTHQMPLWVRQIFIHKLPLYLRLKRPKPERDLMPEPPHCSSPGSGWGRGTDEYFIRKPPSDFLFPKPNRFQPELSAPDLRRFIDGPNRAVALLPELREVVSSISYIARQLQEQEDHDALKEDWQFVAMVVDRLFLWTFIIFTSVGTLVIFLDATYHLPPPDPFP
Sequence (Q07001 22-517): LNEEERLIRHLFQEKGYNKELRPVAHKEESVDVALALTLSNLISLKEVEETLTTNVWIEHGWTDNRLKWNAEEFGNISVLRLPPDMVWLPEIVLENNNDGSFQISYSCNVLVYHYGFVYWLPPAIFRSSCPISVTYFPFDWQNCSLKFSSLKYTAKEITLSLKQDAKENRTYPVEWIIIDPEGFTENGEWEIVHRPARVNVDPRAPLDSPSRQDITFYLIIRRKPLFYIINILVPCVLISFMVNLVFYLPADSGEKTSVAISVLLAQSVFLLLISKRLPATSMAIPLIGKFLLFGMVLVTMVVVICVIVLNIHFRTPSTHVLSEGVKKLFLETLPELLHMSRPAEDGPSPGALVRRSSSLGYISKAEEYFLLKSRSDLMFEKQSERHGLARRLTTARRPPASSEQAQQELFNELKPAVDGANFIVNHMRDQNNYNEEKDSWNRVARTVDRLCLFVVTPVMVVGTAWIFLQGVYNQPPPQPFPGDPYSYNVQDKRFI
Assay: Nicotinic acetylcholine receptor antagonism assay (IONFlux automated patch clamp)
Assay type: cell-based
Conditions: nAChR antagonism, stimulated with ACh; average if more than one run
From the text: Cells expressing human alpha1 nicotinic acetylcholine (nACh) receptor (nAChR) were washed and dissociated using Trypsin containing buffer. Cells were then washed and seeded at a density of 3-5 million cells/mL and allowed to grow for 3 days. […] The receptor was then stimulated via addition of acetylcholine (ACh) and activation of the receptor was monitored via the IONFlux automated patch clamp system. […]
pIC50: −log10 of the molar value.

Tested on human alpha1 nicotinic acetylcholine (nACh) receptor (Homo sapiens, UniProt P02708+Q07001), the item CC(=O)N[C@@H]1C[C@H](N(C)C(C)C)CC[C@@H]1N1CC[C@H](Nc2nc(CCCNC(=O)[C@H]3CC[C@H](NC(=O)CCCO[C@H]4CC[C@H](OCCNC(=O)[C@H]5CC(=O)N(C)[C@@H]5c5cccnc5)CC4)CC3)nc3ccc(C(F)(F)F)cc23)C1=O [Example 6] showed pIC50 equal to < 4.48

CC(=O)N[C@@H]1C[C@H](NC(C)(C)C)CC[C@@H]1N1CC[C@H](Nc2nc(C3CCN(C(=O)[C@H]4CC[C@H](NC(=O)CCCO[C@H]5CC[C@H](OCCNC(=O)[C@H]6CC(=O)N(C)[C@@H]6c6cccnc6)CC5)CC4)CC3)nc3ccc(C(F)(F)F)cc23)C1=O [Example 9] tested on human alpha1 nicotinic acetylcholine (nACh) receptor (Homo sapiens, UniProt P02708+Q07001) gave pIC50: < 4.95

Entry CC(=O)N[C@@H]1C[C@H](NC(C)(C)C)CC[C@@H]1N1CC[C@H](Nc2nc([C@H]3CC[C@@H](NC(=O)[C@H]4CC[C@H](NC(=O)CCCO[C@H]5CC[C@H](OCCNC(=O)[C@H]6CC(=O)N(C)[C@@H]6c6cccnc6)CC5)CC4)CC3)nc3ccc(C(F)(F)F)cc23)C1=O [Example 10] : pIC50 on human alpha1 nicotinic acetylcholine (nACh) receptor (Homo sapiens, UniProt P02708+Q07001) = < 4.48

* * *

Measured EC50, listed per entry for reference.
Target: CHOK1 cells engineered to overexpress human CCR2 (Homo sapiens)
Construct: expressed in transfected cells; host or cells: CHOK1 cells
Experiment: Antibody dependent cellular cytotoxicity (ADCC) reporter assay
Assay type: cell-based
Conditions: with anti-cotinine antibody (SEQ ID NO: 11/12, human IgG1 Fc S239D/I332E); Jurkat FcγRIIIa NFAT-luciferase reporter cells; 12-18 hours; average if more than one run; read-out: ADCC Reporter Assay pEC50 (converted)

compound.smiles	value.type	experimental.value
CC(=O)N[C@@H]1C[C@H](NC(C)(C)C)CC[C@@H]1N1CC[C@H](Nc2nc(OCC3CCN(C(=O)[C@H]4CC[C@H](NC(=O)CCCO[C@H]5CC[C@H](OCCNC(=O)[C@H]6CC(=O)N(C)[C@@H]6c6cccnc6)CC5)CC4)CC3)nc3ccc(C(F)(F)F)cc23)C1=O	EC50	50.1 nM

Okay, now this molecule:
Sample `CC(=O)N[C@@H]1C[C@H](NC(C)(C)C)CC[C@@H]1N1CC[C@H](Nc2nc(NCC3CCN(C(=O)[C@H]4CC[C@H](NC(=O)CCCO[C@H]5CC[C@H](OCCNC(=O)[C@H]6CC(=O)N(C)[C@@H]6c6cccnc6)CC5)CC4)CC3)nc3ccc(C(F)(F)F)cc23)C1=O` ; EC50 observed: 0.316 nM

* * *

Molecular target: human alpha1 nicotinic acetylcholine (nACh) receptor (Homo sapiens, UniProt P02708+Q07001)
Assay: Nicotinic acetylcholine receptor antagonism assay (IONFlux automated patch clamp)
Assay type: cell-based
Details: maximum percentage antagonism at highest concentration tested, 33.3 μM; read-out: Maximum Response (%)
Catalogue of compounds with associated Emax at 33.3 µM
Return type: number; implicit unit %.

compound.smiles	unit.symbol	Emax at 33.3 µM
CC(=O)N[C@@H]1C[C@H](NC(C)(C)C)CC[C@@H]1N1CC[C@H](Nc2nc([C@H]3CC[C@H](NC(=O)[C@H]4CC[C@H](NC(=O)CCCO[C@H]5CC[C@H](OCCNC(=O)[C@H]6CC(=O)N(C)[C@@H]6c6cccnc6)CC5)CC4)CC3)nc3ccc(C(F)(F)F)cc23)C1=O	%	47
CC(=O)N[C@@H]1C[C@H](N(C)C(C)C)CC[C@@H]1N1CC[C@H](Nc2nc(CCCNC(=O)[C@H]3CC[C@H](NC(=O)CCCO[C@H]4CC[C@H](OCCNC(=O)[C@H]5CC(=O)N(C)[C@@H]5c5cccnc5)CC4)CC3)nc3ccc(C(F)(F)F)cc23)C1=O	%	48
CC(=O)N[C@@H]1C[C@H](NC(C)(C)C)CC[C@@H]1N1CC[C@H](Nc2nc(CCCCNC(=O)[C@H]3CC[C@H](NC(=O)CCCO[C@H]4CC[C@H](OCCNC(=O)[C@H]5CC(=O)N(C)[C@@H]5c5cccnc5)CC4)CC3)nc3ccc(C(F)(F)F)cc23)C1=O	%	38

Lab note: next compound to report on.
// Emax at 33.3 µM value for `CC(=O)N[C@@H]1C[C@H](NC(C)(C)C)CC[C@@H]1N1CC[C@H](Nc2nc([C@H]3CC[C@@H](NC(=O)[C@H]4CC[C@H](NC(=O)CCCO[C@H]5CC[C@H](OCCNC(=O)[C@H]6CC(=O)N(C)[C@@H]6c6cccnc6)CC5)CC4)CC3)nc3ccc(C(F)(F)F)cc23)C1=O` : 28
